tested on: Mycobacterium tuberculosis H37Rv; assay: Microplate Alamar Blue assay (MABA) MIC, M. tuberculosis; format: cell-based; details: read-out: MIC Mycobacterium tuberculosis H37Rv
Note to self: use y only for MIC readings below 3 µg/mL; a reading exactly at 3 µg/mL still gets n.

[[record]]
compound = "CCc1ccccc1NC(=O)C(Cc1ccccc1)NC(=O)c1ccccc1 (centres unmarked)"
label_class = "n"

[[record]]
compound = "COc1ccccc1C(=O)NC(Cc1ccccc1)C(=O)Nc1ccccc1C (centres unmarked)"
label_class = "n"

[[record]]
compound = "O=C(NC(Cc1ccccc1)C(=O)Nc1cccc2cn[nH]c12)c1ccccc1 (centres unmarked)"
label_class = "n"

[[record]]
compound = "CCCc1ccccc1NC(=O)C(Cc1ccccc1)NC(=O)c1ccccc1 (centres unmarked)"
label_class = "n"

[[record]]
compound = "Cc1ccccc1NC(=O)C(Cc1ccc(OC(=O)c2ccccc2)cc1)NC(=O)c1ccccc1 (centres unmarked)"
label_class = "n"

[[record]]
compound = "Cc1ccc(Cl)cc1NC(=O)[C@@H](Cc1ccccc1)NC(=O)c1ccccc1F [IX-55a]"
label_class = "y"

[[record]]
compound = "O=C(NC(Cc1ccccc1)C(=O)Nc1cccc2c1OCCO2)c1ccccc1F (centres unmarked)"
label_class = "n"

[[record]]
compound = "COc1ccccc1NC(=O)C(Cc1ccccc1)NC(=O)c1ccccc1 (centres unmarked)"
label_class = "n"

[[record]]
compound = "O=C(NC(Cc1ccccc1)C(=O)Nc1cccc2nc[nH]c12)c1ccccc1 (centres unmarked)"
label_class = "n"

[[record]]
compound = "Cc1ccccc1NC(=O)C(Cc1ccccc1)NC(=O)c1cccc(OC(F)F)c1 (centres unmarked)"
label_class = "n"

[[record]]
compound = "Cc1c(NC(=O)C(Cc2ccccc2)NC(=O)c2ccccc2)cccc1C(F)(F)F (centres unmarked)"
label_class = "n"

[[record]]
compound = "O=C(NC(Cc1ccccc1)C(=O)Nc1cccc2ccncc12)c1ccccc1 (centres unmarked)"
label_class = "n"

[[record]]
compound = "Cc1ccc(F)cc1NC(=O)C(Cc1ccc(O)cc1)NC(=O)c1ccccc1C (centres unmarked)"
label_class = "y"

[[record]]
compound = "Cc1ccccc1C(=O)NC(Cc1ccccc1)C(=O)Nc1cccc2[nH]ncc12 (centres unmarked)"
label_class = "n"

[[record]]
compound = "CC1CN(c2ccc(F)cc2NC(=O)C(Cc2ccccc2)NC(=O)c2ccccc2F)CC(C)N1 (centres unmarked)"
label_class = "n"

[[record]]
compound = "O=C(NC(Cc1ccccc1)C(=O)Nc1cccc2c1OCCO2)c1ccccc1Cl (centres unmarked)"
label_class = "n"

[[record]]
compound = "O=C(NC(Cc1ccccc1)C(=O)Nc1ccccc1OC(F)F)c1ccccc1F (centres unmarked)"
label_class = "n"

[[record]]
compound = "O=C(NC(Cc1ccccc1)C(=O)Nc1cc(F)ccc1OCF)c1ccccc1F (centres unmarked)"
label_class = "y"

[[record]]
compound = "O=C(NC(Cc1ccccc1)C(=O)Nc1ccccc1N1CCNCC1)c1cccs1 (centres unmarked)"
label_class = "y"

[[record]]
compound = "Cc1ccc(F)cc1NC(=O)C(Cc1ccc(O)cc1)NC(=O)c1ccccc1F (centres unmarked)"
label_class = "y"

[[record]]
compound = "O=C(NC(Cc1ccccc1)C(=O)Nc1cccc2ncccc12)c1ccccc1 (centres unmarked)"
label_class = "n"

[[record]]
compound = "O=C(NC(Cc1ccccc1)C(=O)Nc1cccc2ncccc12)c1cccs1 (centres unmarked)"
label_class = "n"

[[record]]
compound = "COc1ccc(F)cc1NC(=O)C(Cc1ccccc1)NC(=O)c1ccccc1C (centres unmarked)"
label_class = "y"

[[record]]
compound = "Cc1ccc(F)cc1NC(=O)C(Cc1ccccc1)NC(=O)c1ccccc1C (centres unmarked)"
label_class = "y"

[[record]]
compound = "Cc1ccccc1C(=O)NC(Cc1ccc(O)cc1)C(=O)Nc1ccccc1N1CCOCC1 (centres unmarked)"
label_class = "y"

[[record]]
compound = "Cn1nnc2cccc(NC(=O)C(Cc3ccccc3)NC(=O)c3ccccc3)c21 (centres unmarked)"
label_class = "n"


====

Each entry below carries its reported MIC.
system: Mycobacterium tuberculosis H37Rv; assay: Microplate Alamar Blue assay (MABA) MIC, M. tuberculosis; format: cell-based; conditions: read-out: MIC Mycobacterium tuberculosis H37Rv
Measured Property: MIC

[[record]]
compound = "O=C(NC(Cc1ccccc1)C(=O)Nc1cccc2ccoc12)c1ccccc1 (stereo not drawn)"
result = "> 50 µg/mL"

[[record]]
compound = "COc1cccc(NC(=O)C(Cc2ccccc2)NC(=O)c2ccccc2)c1C (stereo not drawn)"
result = "> 50 µg/mL"

[[record]]
compound = "Cc1ccccc1NC(=O)C(Cc1ccccc1)NC(=O)c1ccccc1Cl (stereo not drawn)"
result = "> 50 µg/mL"


====

tested on: Mycobacterium smegmatis ATCC 19420; test: Broth microdilution MIC, M. smegmatis; format: cell-based; settings: Mycolicibacterium smegmatis, ATCC19420, M. smegmatis ATCC 19420; read-out: MIC Mycobacterium smegmatis ATCC 19420
Recorded log10(MIC), one value per entry.
Measured Property: log10(MIC) (log10 of the value in µg/mL)

[[record]]
compound = "O=C(NC(Cc1ccccc1)C(=O)Nc1cccc2[nH]ccc12)c1ccccc1 (centres unmarked)"
numeric_result = -0.41

[[record]]
compound = "Cc1ccccc1NC(=O)C(Cc1ccc(O)cc1)NC(=O)c1ccccc1 (centres unmarked)"
numeric_result = -0.71

[[record]]
compound = "COc1ccccc1NC(=O)C(Cc1ccccc1)NC(=O)c1ccccc1 (centres unmarked)"
numeric_result = -0.41

[[record]]
compound = "O=C(NC(Cc1ccccc1)C(=O)Nc1cccc2c1OC(F)(F)O2)c1cccs1 (centres unmarked)"
numeric_result = -0.11

[[record]]
compound = "O=C(NC(Cc1ccccc1)C(=O)Nc1cccc2cnccc12)c1ccccc1Cl (centres unmarked)"
numeric_result = -0.11

[[record]]
compound = "CCCc1ccccc1NC(=O)C(Cc1ccccc1)NC(=O)c1ccccc1 (centres unmarked)"
numeric_result = 0.19

[[record]]
compound = "Cn1ncc2c(NC(=O)C(Cc3ccccc3)NC(=O)c3ccccc3)cccc21 (centres unmarked)"
numeric_result = -0.71

[[record]]
compound = "Cc1ccc(Cl)cc1NC(=O)C(Cc1ccccc1)NC(=O)c1cccc2[nH]ccc12 (centres unmarked)"
numeric_result = -0.41

[[record]]
compound = "Cc1ccc(Cl)cc1NC(=O)C(Cc1ccccc1)NC(=O)c1ccccc1Cl (centres unmarked)"
numeric_result = -0.41

[[record]]
compound = "Cc1c(NC(=O)C(Cc2ccccc2)NC(=O)c2ccccc2)cccc1C(C)C (centres unmarked)"
numeric_result = -0.11

[[record]]
compound = "O=C(NC(Cc1ccccc1)C(=O)Nc1cccc2c1OCO2)c1ccccc1 (centres unmarked)"
numeric_result = -1.02

[[record]]
compound = "Cc1ccccc1NC(=O)C(Cc1ccc(O)cc1)NC(=O)c1cccs1 (centres unmarked)"
numeric_result = -0.41

[[record]]
compound = "O=C(NC(Cc1ccc(O)cc1)C(=O)Nc1ccccc1N1CCNCC1)c1cccs1 (centres unmarked)"
numeric_result = -0.11

[[record]]
compound = "Cc1ccccc1NC(=O)C(Cc1ccccc1)NC(=O)c1ccccc1Cl (centres unmarked)"
numeric_result = -0.41

[[record]]
compound = "Cc1ccccc1C(=O)NC(Cc1ccccc1)C(=O)Nc1cccc2cc[nH]c12 (centres unmarked)"
numeric_result = -0.41

[[record]]
compound = "O=C(NC(Cc1ccccc1)C(=O)Nc1cc(F)ccc1N1CCOCC1)c1cccs1 (centres unmarked)"
numeric_result = -1.01

[[record]]
compound = "COc1ccc(F)cc1NC(=O)C(Cc1ccccc1)NC(=O)c1cccc2[nH]ccc12 (centres unmarked)"
numeric_result = -0.11

[[record]]
compound = "COc1ccc(F)cc1NC(=O)C(Cc1ccccc1)NC(=O)c1ccccc1F (centres unmarked)"
numeric_result = -0.41

[[record]]
compound = "O=C(NC(Cc1ccccc1)C(=O)Nc1cc(F)ccc1N1CCNCC1)c1ccccc1Br (centres unmarked)"
numeric_result = -0.41

[[record]]
compound = "COc1ccccc1NC(=O)C(Cc1ccccc1)NC(=O)c1cccc2[nH]ccc12 (centres unmarked)"
numeric_result = -0.41

[[record]]
compound = "O=C(NC(Cc1ccc(O)cc1)C(=O)Nc1ccccc1N1CCOCC1)c1ccccc1 (centres unmarked)"
numeric_result = -1.02

[[record]]
compound = "Cc1c(NC(=O)C(Cc2ccccc2)NC(=O)c2ccccc2)cccc1C(F)F (centres unmarked)"
numeric_result = -0.41

[[record]]
compound = "O=C(NC(Cc1ccccc1)C(=O)Nc1cccc2c1OCCO2)c1ccccc1F (centres unmarked)"
numeric_result = -1.02

[[record]]
compound = "O=C(NC(Cc1ccccc1)C(=O)Nc1cccc2[nH]ncc12)c1cccc2[nH]ccc12 (centres unmarked)"
numeric_result = -0.11

[[record]]
compound = "O=C(NC(Cc1ccccc1)C(=O)Nc1ccccc1-n1cncn1)c1ccccc1 (centres unmarked)"
numeric_result = -0.11

[[record]]
compound = "O=C(NC(Cc1ccc(O)cc1)C(=O)Nc1cccc2cnccc12)c1ccccc1 (centres unmarked)"
numeric_result = -0.41


====

test system: Vero E6 ATCC CRL1586 cells; assay: Mammalian-cell cytotoxicity, minimal cytotoxic concentration (CellTiter96); assay type: cell-based
Measured Property: MCC mammalian cells Vero E6 ATCC CRL1586

[[record]]
compound = "O=C(NC(Cc1ccccc1)C(=O)Nc1cccc2cnccc12)c1ccccc1F (stereo not drawn)"
measured_property = "MCC mammalian cells Vero E6 ATCC CRL1586"
result = "79 µg/mL"

[[record]]
compound = "Cc1ccccc1C(=O)NC(Cc1ccccc1)C(=O)Nc1ccccc1N1CCNCC1 (stereo not drawn)"
measured_property = "MCC mammalian cells Vero E6 ATCC CRL1586"
result = "15 µg/mL"

[[record]]
compound = "O=C(NC(Cc1ccc(O)cc1)C(=O)Nc1ccccc1N1CCNCC1)c1cccs1 (stereo not drawn)"
measured_property = "MCC mammalian cells Vero E6 ATCC CRL1586"
result = "69 µg/mL"

